FYI, the data here is from patent US20160177307.

Tgt: PDGF-BB (platelet-derived growth factor BB) (Homo sapiens)
Procedure Summary: filter
Assay Conditions: NapdU at P; 2'-OMe 7
Measure: pKd
The quantity pKd is defined as the negative base-10 logarithm of the molar concentration.

Record request: pKd value, item CGACAGCATGTATGCACATCT [5169-4_35]
10.80

* * *

Tgt: PDGF-BB (platelet-derived growth factor BB) (Homo sapiens) (UniProt P01127)
Sequence (P01127 82-190): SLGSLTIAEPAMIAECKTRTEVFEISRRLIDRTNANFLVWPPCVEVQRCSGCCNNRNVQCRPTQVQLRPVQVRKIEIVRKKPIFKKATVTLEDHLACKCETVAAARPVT
Procedure Summary: filter
Assay Conditions: as 5169-4_146; PS 4; 3' inverted dT
Measure: pKd
The quantity pKd is defined as the negative base-10 logarithm of the molar concentration.

Checklist item: pKd tested on PDGF-BB (platelet-derived growth factor BB) (Homo sapiens) (UniProt P01127), entry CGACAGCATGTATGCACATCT [5169-4_173] , value?
11.04
